Tested on: human platelet Caspase-3 activity
ASSAY COMMENT: Human platelet toxicity experiment (Caspase-3 activity assay)
Type: cell-based
PARTICULARS: compound concentration 0.5 μM, 90 min; data normalized, reference ABT-199
Entries annotated with measured human platelet Caspase-3 activity, Slope
METRIC NAME: human platelet Caspase-3 activity, Slope

1. CC1(C)CCC(CN2CCN(c3ccc(C(=O)NS(=O)(=O)c4ccc(NCC5CN(S(C)(=O)=O)CCO5)c([N+](=O)[O-])c4)c(Oc4cnc5[nH]ccc5c4)c3)CC2)=C(c2ccc(C(F)(F)F)cc2Cl)C1 (stereo not drawn)    0.27
2. CCS(=O)(=O)N1CCOC(CNc2ccc(S(=O)(=O)NC(=O)c3ccc(N4CCN(CC5=C(c6ccc(C(F)(F)F)cc6Cl)CC(C)(C)CC5)CC4)cc3Oc3cnc4[nH]ccc4c3)cc2[N+](=O)[O-])C1 (stereo not drawn)    0.08
3. CC1(C)CCC(CN2CCN(c3ccc(C(=O)NS(=O)(=O)c4ccc(NC[C@@H]5CCCOC5)c([N+](=O)[O-])c4)c(Oc4cnc5[nH]ccc5c4)c3)CC2)=C(c2ccc(C(F)(F)F)cc2Cl)C1    0.19

* * *

Entries annotated with measured Rat Residual content after 60 min (%)
ASSAY COMMENT: In vitro stability in rat liver microsomes
Assay type: in vitro ADME
PARTICULARS: 1 μM
METRIC NAME: Rat Residual content after 60 min (%)

1) CC1(C)CCC(CN2CCN(c3ccc(C(=O)NS(=O)(=O)c4ccc(NCC5CN(S(C)(=O)=O)CCO5)c([N+](=O)[O-])c4)c(Oc4cnc5[nH]ccc5c4)c3)CC2)=C(c2ccc(C(F)(F)F)cc2Cl)C1 (stereo not shown)    80.2%
2) COCC(=O)N1CCO[C@H](CNc2ccc(S(=O)(=O)NC(=O)c3ccc(N4CCN(CC5=C(c6ccc(C(F)(F)F)cc6Cl)CC(C)(C)CC5)CC4)cc3Oc3cnc4[nH]ccc4c3)cc2[N+](=O)[O-])C1    66.3%
3) CC1(C)CCC(CN2CCN(c3ccc(C(=O)NS(=O)(=O)c4ccc(NC[C@H]5COCCO5)c([N+](=O)[O-])c4)c(Oc4cnc5[nH]ccc5c4)c3)CC2)=C(c2ccc(C(F)(F)F)cc2Cl)C1    90.9%
4) CC(C)C(=O)N1CCOC(CNc2ccc(S(=O)(=O)NC(=O)c3ccc(N4CCN(CC5=C(c6ccc(C(F)(F)F)cc6Cl)CC(C)(C)CC5)CC4)cc3Oc3cnc4[nH]ccc4c3)cc2[N+](=O)[O-])C1 (stereo not shown)    69.9%
5) CC1(C)CCC(CN2CCN(c3ccc(C(=O)NS(=O)(=O)c4ccc(NCC5CCOCC5)c([N+](=O)[O-])c4)c(Oc4cnc5[nH]ccc5c4)c3)CC2)=C(c2ccc(C(F)(F)F)cc2Cl)C1    88.4%
6) CC(=O)N1CCOC(CNc2ccc(S(=O)(=O)NC(=O)c3ccc(N4CCN(CC5=C(c6ccc(C(F)(F)F)cc6Cl)CC(C)(C)CC5)CC4)cc3Oc3cnc4[nH]ccc4c3)cc2[N+](=O)[O-])C1 (stereo not shown)    101.7%
7) CC1(C)CCC(CN2CCN(c3ccc(C(=O)NS(=O)(=O)c4ccc(NCC5CCOCC5)c([N+](=O)[O-])c4)c(Oc4cnc5[nH]ccc5c4)c3)CC2)=C(c2ccc(C(F)(F)F)c(F)c2)C1    61.2%
